System: MS2 coat protein
Experiment: apparent KD of MS2 coat protein; designed switch direction (-1 OFF switch, 1 ON switch): -1; higher = weaker reporter binding
Details: Eterna round: R95; input ligand: none
Label rule, in plain words: apparent KD of MS2 coat protein of 60 nM and up is 1 (yes), under 60 nM is 0 (no).

State whether the measured apparent KD of MS2 coat protein reaches 60 nM, counting equality as reaching it, for CCAUGUUAGCAGGAUAUGCAAUAAAUCUUUUAUGCAGAAGGGCUUACAUGAGGAUCACCCAUGUAUUAAGUCAA [JR_E6_Sub078] (puzzle: Exclusion 6)
0 (no)

What do you have for CGUGACUCAGGAUAUGGAUUAUAUCACAUGAGGAUCACCCAUGUCCAGCGAAAGCUGGAGUCAGAAGGGAGUCACG [Fiskers Ex 5 - 48] (puzzle: Exclusion 5) ?
1 (yes)

What do you have for CGCUAGUCAGGAUAUACGAACAUGUCAAAAGACGUGAAGGGACAUGAGGAUCACCCAUGUAGAAGGGACUAGCC [salish99_ex2_r3_011] (puzzle: Exclusion 2) ?
0 (no)

What do you have for AAAAACAGAGGAUAUGCACGCCGACCCGGGCGGGAAGUCGGACAUGAGGAUCACCCAUGUAGAAGGCUGAAAAA [Exclss2-VI] (puzzle: Exclusion 2) ?
0 (no)

What do you have for AGUAGUUGUUUCCGUUCUUACAUGAGGAUCACCCAUGUUUCUUGUCGUGCACGCGAUGCUCGUCAGACUACCAGAUG [salish99_TOv1_r3_058] (puzzle: Sensor v3, turn-off variant 1) ?
1 (yes)

What do you have for ACCGGUGUUGCGGAUAAGCUUUUCUGCUCGUUUUAUCGCACAUGAGGAUCACCCAUGUCAUCCGUCAGCAUGCAAAC [Usveen] (puzzle: Sensor v3, turn-off variant 2) ?
0 (no)

What do you have for UUAUUACAAGCAAGAUCCCACAUGAGGAUCACCCAUGUGCUCGUCUUAUAAGGUACAGUGACGAAAGUCACAGUACC [Sensor 3, v1 - 0] (puzzle: Sensor v3, turn-off variant 1) ?
0 (no)

What do you have for UAGUAGCAAGGAUAUACAGAGGAGAGGAAAGCAAGAGGAGGACAUGAGGAUCACCCAUGUAGAAGGUGCAGAGA [JR_Exclu2_Sub020] (puzzle: Exclusion 2) ?
1 (yes)

What do you have for ACAAAGGGAGUCAGGAUAUCGGACGUAAGUCAAGACGAGAAGGGACAUGAGGAUCACCCAUGUCAGCGGUGAAA [Exclusion 4 S1] (puzzle: Brourd's mod of Exclusion 4) ?
0 (no)

What do you have for AGUGCGUAUGUGAGGAUAUGCUGGUCCUUGGAUCGGCAGAAGGCACAUGAGGAUCACCCAUGUGGUGUCGUACG [salish99_Bmod_ex4_077] (puzzle: Brourd's mod of Exclusion 4) ?
1 (yes)

What do you have for ACGUGAUAUCUGUCGGUGGACAUGAGGAUCACCCAUGUAAGCUUUUUGCUCGUCUUAUAACCCGGUGACAGACCUUC [Tixeed] (puzzle: Sensor v3, turn-off variant 1) ?
0 (no)

Origin of the recorded values: the supplement of paper PMC9170038
